Known TGI of a selection of compounds
Test system: SNB-75 CNS
Assay Method Text: NCI tumour cell line growth inhibition, 48 h
Attribute Measured: TGI

[
  {
    "Given Smiles": "Cc1cc(O)cc2c1c(=O)c1ccccc1n2C",
    "Endpoint Value": "> 100 µM"
  },
  {
    "Given Smiles": "O=C(CC(=O)c1ccccc1)c1ccccc1",
    "Endpoint Value": "> 100 µM"
  },
  {
    "Given Smiles": "C[N+](C)([O-])CCCNc1ccnc2cccc([N+](=O)[O-])c12",
    "Endpoint Value": "> 100 µM"
  },
  {
    "Given Smiles": "COc1ccccc1NCC(=O)Nn1c(C)nc2ccc(S(=O)(=O)Nc3ccccc3OC)cc2c1=O",
    "Endpoint Value": "> 100 µM"
  },
  {
    "Given Smiles": "C#CCN(Cc1nc2cc(C(F)(F)F)ccc2nc1-c1ccccc1)c1ccc(F)c(F)c1",
    "Endpoint Value": "> 100 µM"
  },
  {
    "Given Smiles": "NCP(=O)(O)OCC(=O)O",
    "Endpoint Value": "> 100 µM"
  }
]

Taken from PubChem BioAssay (NCI).
